measured-target: MMP-12 (catalytic domain) (human), (recombinant) (human, UniProt P39900 106-263)
Sequence (P39900 106-263): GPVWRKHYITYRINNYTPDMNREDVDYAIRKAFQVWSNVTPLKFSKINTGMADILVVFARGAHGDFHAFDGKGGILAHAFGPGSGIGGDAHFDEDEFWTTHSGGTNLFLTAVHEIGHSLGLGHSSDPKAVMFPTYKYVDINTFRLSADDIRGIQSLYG
assay-details: enzyme inhibition
pIC50: −log10 of the molar value.
Catalogue of binders with associated pIC50
endpoint: pIC50

| binder | value |
| --- | --- |
| active MMP-9-binding peptide M91012 (designed binder) GSGMKETAAAKFERQHMDSPDLGTDDDDKAMADIGSANSDPQFGLFSKYRTPNCRVRGGPSCQMSFNPVCGSDMSTYANECTLCMKIREGGHNIKIIRNGPCGASAAA | < 6.00 |
| active MMP-9-binding peptide M91001 (designed binder) GSGMKETAAAKFERQHMDSPDLGTDDDDKAMADIGSANSDPQFGLFSKYRTPNCQRGIGPSCQMSYKPVCGSDMSTYANECTLCMKIREGGHNIKIIRNGPCGASAAA | < 6.00 |
| active MMP-9-binding peptide M91005 (designed binder) GSGMKETAAAKFERQHMDSPDLGTDDDDKAMADIGSANSDPQFGLFSKYRTPNCRKRGGPSCQMSYNPVCGSDMSTYANECTLCMKIREGGHNIKIIRNGPCGASAAA | < 6.00 |
| active MMP-9-binding peptide M91011 (designed binder) GSGMKETAAAKFERQHMDSPDLGTDDDDKAMADIGSANSDPQFGLFSKYRTPNCMMYKYAQCSHKSQPVCGSDMSTYANECTLCMKIREGGHNIKIIRNGPCGASAAA | < 6.00 |
